A compilation of published pIC50 results with Amine oxidase [flavin-containing] B (Homo sapiens).
systemUnderTest: Amine oxidase [flavin-containing] B (Homo sapiens)
Sequence (P27338 whole entry): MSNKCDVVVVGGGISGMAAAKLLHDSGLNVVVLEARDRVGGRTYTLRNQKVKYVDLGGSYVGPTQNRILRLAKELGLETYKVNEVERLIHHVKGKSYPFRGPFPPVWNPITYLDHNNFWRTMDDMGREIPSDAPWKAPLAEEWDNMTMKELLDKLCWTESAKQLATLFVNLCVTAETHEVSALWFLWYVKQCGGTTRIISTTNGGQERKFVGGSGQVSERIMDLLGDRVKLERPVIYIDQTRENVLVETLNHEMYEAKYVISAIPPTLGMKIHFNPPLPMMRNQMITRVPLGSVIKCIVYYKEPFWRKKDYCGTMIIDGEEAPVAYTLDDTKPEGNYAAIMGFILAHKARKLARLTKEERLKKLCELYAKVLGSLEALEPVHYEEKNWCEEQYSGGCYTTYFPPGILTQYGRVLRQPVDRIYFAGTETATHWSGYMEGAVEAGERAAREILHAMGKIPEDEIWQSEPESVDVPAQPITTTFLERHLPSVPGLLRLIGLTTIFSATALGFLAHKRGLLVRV
pIC50: −log10 of the molar value.
Categories are assigned from the measured pIC50 using these intervals: zone 1 = under 5, zone 2 = from 5 up to 7, zone 3 = 7 and over

Check out these entries, answers already filled in.
stdin: Looking at `COc1ccc2c(c1)C/C(=C\c1cccnc1)C2=O` , which class would you pick?
stdout: zone 2

stdin: Looking at `N#Cc1ccc(OCc2ccc(Br)cc2)cc1C#N` , which class would you pick?
stdout: zone 3

stdin: Looking at `O=c1ccoc2cc(OCc3cccc(Br)c3)ccc12` , which class would you pick?
stdout: zone 3

stdin: Looking at CC(=O)N1N=C(c2ccccc2)CC1c1ccccc1C (stereo not given) , which class would you pick?
stdout: zone 1

stdin: Looking at `O=C1/C(=C/C2CCCCC2)Cc2ccccc21` , which class would you pick?
stdout: zone 2

More entries:
stdin: Looking at `O=C(CCCCc1cn(Cc2ccc3oc(-c4ccccc4)cc(=O)c3c2)nn1)Nc1ccc(F)cc1` , which class would you pick?
stdout: zone 1

stdin: Looking at `O=c1cc(-c2ccccc2)oc2ccc(Cn3nncc3COc3ccc(F)cc3)cc12` , which class would you pick?
stdout: zone 1
